assay: NCI Yeast Anticancer Drug Screen. Data for the bub3 strain (AID 167)
experimental.parameters: S. cerevisiae bub3 mutant strain, at 50.0 µM, hits give high values
The panel holds about 79,000 compounds, 15% with a hit somewhere; the sample as a whole holds those more often.
parameter: growth inhibition (%)
Reply with just the number (in %).

Suppose we examine the molecule `CCOC(=O)c1c(C(=O)Nc2ccccc2)c(-c2ccccc2)n(NC(N)=O)c1C` ; what growth inhibition value has been reported?
0.85

* * *

assay: NCI Yeast Anticancer Drug Screen. Data for the sgs1 mgt1 strain (AID 161);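 further: 0% = growth of cultures given vehicle only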
experimental.parameters: S. cerevisiae sgs1 mgt1 strain, at 50.0 µM, hits give high values
The panel holds about 79,000 compounds, 15% with a hit somewhere; the sample as a whole holds those more often.
parameter: growth inhibition (%)
Reply with just the number (in %).

COc1cc(/C=N/NC(N)=S)cc(OC)c1	-15.1

For the next question, use this molecule.
Suppose we examine the molecule `CCOc1ccccc1NC(=S)NC(=O)CCc1ccccc1` ; what growth inhibition value has been reported?
41.9

* * *

Some compounds, each annotated with its measured growth inhibition.
assay: NCI Yeast Anticancer Drug Screen. Data for the mec2-1 strain (AID 157)
experimental.parameters: S. cerevisiae mec2-1 strain, at 50.0 µM, hits give high values
Compounds without any hit were thinned out: in the full panel of roughly 79,000, 15% have a hit.
Reply with just the number (in %).

Below, each entry is followed by its recorded growth inhibition result.
C/C(CC(C)C)=N\NC(=O)Nc1ccccc1Cl	5.7
CC(C)=CCC1=C(OCC(=O)O)C(=O)c2ccccc2C1=O	1.45
C[N+](C)(C)CC(=O)N/N=C(/Cc1nc2ccc([N+](=O)[O-])cc2[nH]c1=O)C(=O)Nc1cc(C(F)(F)F)ccc1Cl	3.7
CCOC(=O)C(CCc1ccc([N+](=O)[O-])cc1)(CCc1ccc([N+](=O)[O-])cc1)C(=O)OCC	-16.1
COc1ccc(C2OC(C)C(C)O2)cc1 (configuration not stated)	10.4

Suppose we examine the compound `CCCCCCCOCC(=O)O` ; what growth inhibition value has been reported?
-5.8

Field entry: `CCS(=O)(=O)/C=C(\C(=O)c1ccccc1)c1ccccc1`
93.5

Field entry: CC1=CCC(C#N)N(C)C1c1ccccc1 (configuration not stated)
-5.25

Field entry: `Cc1c(Cl)cccc1NC(=O)Oc1ccc(Cl)cc1`
-2.75

Field entry: `Fc1ccc(-c2ccc(F)cc2)cc1`
-15.4

Field entry: `Cc1ccccc1C(=O)OC1CCCC1`
-1.45

Field entry: `CCN(CC)CCC(=O)c1ccc(C)cc1`
-46.8

* * *

assay: NCI Yeast Anticancer Drug Screen. Data for the bub3 strain (AID 167)
experimental.parameters: S. cerevisiae bub3 mutant strain, at 50.0 µM
The panel holds about 79,000 compounds, 15% with a hit somewhere; the sample as a whole holds those more often. Active and inactive are the calls of the source. No stated cut-off is given here; in the data, active means growth inhibition above about 70%; inactive means the rest.
Entry note: the call must match one of active, inactive

A selection of reference data follows.
CC(=O)Nc1ccc(C(=O)CC(c2ccccc2)N2CCOCC2)cc1 (centres undefined)	inactive
COCCCOC(=O)COc1ccccc1	inactive
Cn1ncc(C(=O)O)c1[N+](=O)[O-]	inactive

Answer briefly: the call reported for `O=C(CCCCCCCCC(=O)NC1CCCCC1)NC1CCCCC1` in this assay.
inactive

Field entry: `C=CCSc1nc2ccc(NCn3c(=S)sc4cc([N+](=O)[O-])ccc43)cc2s1`
inactive

Field entry: CC(C)C1=CC23CCC4C(C)(C(=O)O)CCCC4(C)C2CC1C1C(=O)N(CCCN(C)C)C(=O)C13 (centres undefined)
active

Field entry: `COc1ccc2c(c1)c1c3c(ccc4ncn2c43)N(CCO)CCN=1`
inactive

Field entry: `COc1cccc(/C=C2\SC(=S)N(/C=C3\C(=O)Oc4ccccc4C3=O)C2=O)c1O`
inactive

Field entry: `CC(=O)Nc1cc(N)ccc1C`
inactive

Field entry: COc1ccc(C2OC(C)C(C)O2)cc1 (centres undefined)
inactive

Field entry: CCCNC1CC(n2cc(C)c(=O)[nH]c2=O)OC1CO (centres undefined)
inactive
